System: SEM cells
testMethodNotes: cell viability relative to DMSO control; higher = less cytotoxic
conditionContext: RPMI 5 mM glucose + 10% FBS; 48 h; 0.00702 µM
metricName: cell viability (%)
One number for each entry, in %.

// solved cases for cell viability follow
{"compound": "O=C(O)c1ccc(-c2c[nH]c3ncc(-c4ccccc4)cc23)cc1C1CCCC1", "metricName": "cell viability", "testResult": 111}
{"compound": "CN(c1nccc(=O)[nH]1)C1CCN(c2nc3ccccc3n2Cc2ccc(F)cc2)CC1", "metricName": "cell viability", "testResult": 95}

Give measured cell viability for every item shown.
1. CC[C@H](NC(C)C)[C@H](O)c1ccc(O)c2[nH]c(=O)ccc12
2. O=C1CCC[C@@H]2[C@H]3CCC[N+]4([O-])CCC[C@@H](CN12)[C@@H]34 (some centres undefined)
3. C[N]1N=CC2=C1C=C(C(=C2)OC3=CC=C(NC(=O)\C4=C\C=C(\C)N(C4=O)C5=CC=C(F)C=C5)C=C3F)C6=C[NH]N=C6
4. CNC(=O)c1cc(Oc2ccc(NC(=O)Nc3ccc(Cl)c(C(F)(F)F)c3)cc2)ccn1

A)
96.9
93.9
96.6
89.1

Each compound below has a recorded value; state its cell viability.
1. CN1/C=C(\N=C(NC2=CC=C(C=C2)C(=O)N3CCOCC3)/C1=O)/C4=C(C)C(=CC=C4)NC(=O)C5=CC=C(C=C5)C(C)(C)C
2. CC(=O)C1=C(O)C2(C)C(=CC1=O)Oc1c(C(C)=O)c(O)c(C)c(O)c12 (centres undefined)

A)
106
123

Q) Sample `COc1cccc2c(NCc3ccccc3)nc(-n3c(N)nc4ccccc43)nc12` — what was its cell viability?
A) 98.7
